assay: Determination of aqueous (kinetic) solubility; format: physicochemical; settings: aqueous buffer, kinetic from dmso stock, buffer pH 7.4
Reported solubility values follow for various compounds

The reported value for C[C@H](CO)n1ccc2c(NC(=O)Cc3ccc(C(F)(F)F)c(F)c3)c(Cl)ccc2c1=O in terms of solubility is > 75 µM

// sample CC(C(=O)Nc1cccc2c(=O)n([C@H](C)C(N)=O)ccc12)c1ccc(Cl)c(Cl)c1 (some centres unmarked) , its solubility was 26 to 50 µM

Form field solubility, entry C[C@H](CO)n1ccc2c(NC(=O)Cc3ccc(Cl)c(Cl)c3)c(Cl)ccc2c1=O : > 75 µM

The compound listed as C[C@@H](C(N)=O)n1ccc2c(NC(=O)Cc3ccc(Cl)c(C(F)(F)F)c3)cccc2c1=O shows solubility equal to < 25 µM

Data point: C[C@H](C(N)=O)n1ccc2c(NC(=O)Cc3ccc(C(F)(F)F)c(F)c3)cccc2c1=O ; solubility = < 25 µM

Per the records, this compound ( NC(=O)[C@H](CO)n1ccc2c(NC(=O)Cc3ccc(Cl)c(C(F)(F)F)c3)cccc2c1=O ) has solubility equal to > 75 µM

Noted for C[C@H](CO)n1ccc2c(NC(=O)Cc3ccc(F)c(C(F)(F)F)c3)c(Cl)ccc2c1=O : its solubility reads > 75 µM

Noted for C[C@@H](C(N)=O)n1ccc2c(NC(=O)Cc3ccc(Cl)cc3C(F)(F)F)cccc2c1=O : its solubility reads 26 to 50 µM
